Assay summary: log P determination by HPLC on reversed-phase column (C 18), EEC directive 79/831 Annex V.A8
Format: physicochemical
Condition set: reversed-phase HPLC column (C 18), pH 2.3, pH 2.3 (marked a), 0.1% aqueous phosphoric acid/acetonitrile, 43° C.
Parameter: chromatographic logP

Compound: CCCN(C)C(=O)[C@H]1CC(c2c(F)cccc2F)=NC1c1ccc(-c2ccc(OC(F)(F)F)cc2)cc1 (stereo partly shown)
Value: 4.23
//
Compound: CC(C)COC(=O)[C@H]1CC(c2c(F)cccc2F)=NC1c1ccc(-c2ccc(OC(F)(F)F)cc2)cc1 (stereo partly shown)
Value: 5.38
//
Compound: CCCCCCNC(=O)[C@H]1CC(c2c(F)cccc2F)=NC1c1ccc(-c2ccc(OC(F)(F)F)cc2)cc1 (stereo partly shown)
Value: 4.67
//
Compound: CCCCCN(C)C(=O)[C@H]1CC(c2c(F)cccc2F)=NC1c1ccc(-c2ccc(OC(F)(F)F)cc2)cc1 (stereo partly shown)
Value: 4.92
//
Compound: O=C(OCc1ccc(Cl)nc1)[C@H]1CC(c2c(F)cccc2F)=NC1c1ccc(-c2ccc(OC(F)(F)F)cc2)cc1 (stereo partly shown)
Value: 4.82
//
Compound: CC(C)(C)COC(=O)[C@H]1CC(c2c(F)cccc2F)=NC1c1ccc(-c2ccc(OC(F)(F)F)cc2)cc1 (stereo partly shown)
Value: 5.78
//
Compound: CC(C)(COC(=O)[C@H]1CC(c2c(F)cccc2F)=NC1c1ccc(-c2ccc(OC(F)(F)F)cc2)cc1)[N+](=O)[O-] (stereo partly shown)
Value: 4.77

* * *

Assay summary: log P determination by HPLC on reversed-phase column (C 18), EEC directive 79/831 Annex V.A8
Format: physicochemical
Condition set: reversed-phase HPLC column (C 18), pH 2.3, pH 2.3 (marked a), 0.1% aqueous phosphoric acid/acetonitrile, 43° C.
Description: The log P values given in the tables and Preparation Examples above are determined in accordance with EEC directive 79/831 Annex V.A8 by HPLC (High Performance Liquid Chromatography) using a reversed-phase column (C 18). Temperature: 43° C. In the acidic range, the determination is carried out at pH 2.3 using the mobile phases 0.1% aqueous phosphoric acid and acetonitrile; linear gradient from 10% acetonitrile to 90% acetonitrile (marked^a) in the table). […]
Parameter: chromatographic logP

Take a look at these entries with their results.
Compound: O=C(OC/C=C/c1ccccc1)[C@H]1CC(c2c(F)cccc2F)=NC1c1ccc(-c2ccc(OC(F)(F)F)cc2)cc1 (some centres unmarked)
Value: 5.55
--
Compound: O=C(NC1CCC(C(F)(F)F)CC1)[C@H]1CC(c2c(F)cccc2F)=NC1c1ccc(-c2ccc(OC(F)(F)F)cc2)cc1 (some centres unmarked)
Value: 4.46
--
Compound: COC(=O)c1cnc(NC(=O)[C@H]2CC(c3c(F)cccc3F)=NC2c2ccc(-c3ccc(OC(F)(F)F)cc3)cc2)s1 (some centres unmarked)
Value: 3.94
--
Compound: O=C(OCc1cccs1)[C@H]1CC(c2c(F)cccc2F)=NC1c1ccc(-c2ccc(OC(F)(F)F)cc2)cc1 (some centres unmarked)
Value: 5.19
--
Compound: O=C([C@H]1CC(c2c(F)cccc2F)=NC1c1ccc(-c2ccc(OC(F)(F)F)cc2)cc1)N1CCCCC1 (some centres unmarked)
Value: 4.32
--
Compound: Cc1ccc(CNC(=O)[C@H]2CC(c3c(F)cccc3F)=NC2c2ccc(-c3ccc(OC(F)(F)F)cc3)cc2)cc1 (some centres unmarked)
Value: 4.37
--
Compound: COc1cccc(CNC(=O)[C@H]2CC(c3c(F)cccc3F)=NC2c2ccc(-c3ccc(OC(F)(F)F)cc3)cc2)c1OC (some centres unmarked)
Value: 4.03
--
Compound: CC(C)N(C(=O)COC(=O)[C@H]1CC(c2c(F)cccc2F)=NC1c1ccc(-c2ccc(OC(F)(F)F)cc2)cc1)c1ccc(F)cc1 (some centres unmarked)
Value: 4.98

P: CCN(CC)C(=O)[C@H]1CC(c2c(F)cccc2F)=NC1c1ccc(-c2ccc(OC(F)(F)F)cc2)cc1 (some centres unmarked)
Q: CCCCCCOC(=O)[C@H]1CC(c2c(F)cccc2F)=NC1c1ccc(-c2ccc(OC(F)(F)F)cc2)cc1 (some centres unmarked)
Query: Please state the entry with greater chromatographic logP among P and Q . Please reply using the label of the selected record.
Result: Q
